Some compounds, each annotated with its measured Kd.
biological target: Polymerase basic protein 2 (Influenza A virus (strain A/Puerto Rico/8/1934 H1N1)); experiment: Binding affinity to full length Influenza A virus PB2 cap-binding domain assessed as dissociation constant incubated for 60 mins by fluorescence polarization assay
Sequence (P03428 whole entry, the tested form may be a part): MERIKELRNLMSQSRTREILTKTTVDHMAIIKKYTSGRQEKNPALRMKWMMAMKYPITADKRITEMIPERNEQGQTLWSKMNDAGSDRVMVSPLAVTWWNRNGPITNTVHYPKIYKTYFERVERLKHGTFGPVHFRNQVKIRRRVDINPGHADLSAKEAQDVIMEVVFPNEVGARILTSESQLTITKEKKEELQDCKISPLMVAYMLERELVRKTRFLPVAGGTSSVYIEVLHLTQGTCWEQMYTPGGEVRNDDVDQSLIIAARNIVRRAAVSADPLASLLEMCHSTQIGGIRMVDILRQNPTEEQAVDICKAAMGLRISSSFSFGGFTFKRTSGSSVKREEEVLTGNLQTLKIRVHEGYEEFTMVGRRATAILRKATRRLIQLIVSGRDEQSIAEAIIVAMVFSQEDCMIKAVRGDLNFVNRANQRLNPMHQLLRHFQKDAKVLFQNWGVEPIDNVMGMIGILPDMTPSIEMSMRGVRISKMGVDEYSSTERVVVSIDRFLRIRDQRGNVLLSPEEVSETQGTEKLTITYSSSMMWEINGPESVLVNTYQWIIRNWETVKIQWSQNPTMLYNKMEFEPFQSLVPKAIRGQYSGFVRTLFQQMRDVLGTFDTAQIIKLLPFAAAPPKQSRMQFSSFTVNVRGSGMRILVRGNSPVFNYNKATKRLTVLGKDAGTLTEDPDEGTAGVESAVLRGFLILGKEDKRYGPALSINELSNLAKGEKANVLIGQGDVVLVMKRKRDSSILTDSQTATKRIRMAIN

{"COMPOUND": "CCC(C)(C)[C@@H](CC(=O)O)Nc1nc(-c2c[nH]c3ncc(F)cc23)ncc1F", "Kd": "< 3 nM"}
{"COMPOUND": "CC(C)(C)[C@@H](CC(=O)O)Nc1nc(-c2c[nH]c3ncc(F)cc23)ncc1F", "Kd": "3 nM"}
{"COMPOUND": "CC(C)(C)[C@H](CC(=O)O)Nc1nc(-c2c[nH]c3ncc(Cl)cc23)ncc1F", "Kd": "200 nM"}
{"COMPOUND": "CC(C)(C)[C@H](CC(=O)O)Nc1nc(-c2c[nH]c3ncc(F)cc23)ncc1F", "Kd": "150 nM"}
{"COMPOUND": "C[C@](CC(=O)O)(Nc1nc(-c2c[nH]c3ncc(F)cc23)ncc1F)C1CCC1", "Kd": "< 3 nM"}
{"COMPOUND": "CC1([C@@H](CC(=O)O)Nc2nc(-c3c[nH]c4ncc(F)cc34)ncc2F)CCCC1", "Kd": "< 3 nM"}
{"COMPOUND": "CC(C)(C)[C@@H](CC(=O)O)Nc1nc(-c2c[nH]c3ncc(Cl)cc23)ncc1F", "Kd": "< 3 nM"}
{"COMPOUND": "CC1(C(CC(=O)O)Nc2nc(-c3c[nH]c4ncc(F)cc34)ncc2F)CCCCC1 (racemic)", "Kd": "< 3 nM"}

====

test: Half-life in rat at 1 mg/kg, iv; format: ADME, organism-based; details: in vivo
MEASURED_ENDPOINT: half-life (h)

{"QUERY_SMILES": "CC(C)(C)[C@@H](CC(=O)O)Nc1nc(-c2c[nH]c3ncc(F)cc23)ncc1F", "VALUE_OBSERVED": 9.9}

====

assay: Stability in rat S9 fraction assessed as compound remaining at 1 uM; assay type: ADME, subcellular; settings: read-out: Stability
MEASURED_ENDPOINT: remaining at 1 µM (%)

{"QUERY_SMILES": "C[C@](CC(=O)O)(Nc1nc(-c2c[nH]c3ncc(F)cc23)ncc1F)C1CCC1", "VALUE_OBSERVED": 100}

====

test system: Influenza A virus; assay: Antiviral activity against oseltamivir sensitive Influenza A virus A/California/07/2009 (H1N1) infected in MDCK cells incubated for 72 hrs by cell protection assay; format: functional, organism-based

{"QUERY_SMILES": "CC(C)(C)[C@@H](CC(=O)O)Nc1nc(-c2c[nH]c3ncc(F)cc23)ncc1F", "UOM": "nM", "EC50": 4}

====

test: Clearance in rat at 1 mg/kg, iv; assay type: ADME, organism-based; settings: in vivo

{"QUERY_SMILES": "CC(C)(C)[C@@H](CC(=O)O)Nc1nc(-c2c[nH]c3ncc(F)cc23)ncc1F", "clearance (mL/min/kg)": 8}

====

assay: Cmax in mouse at 30 mg/kg, po; assay type: ADME, organism-based; design: dose 30 mg/kg, route po; details: in vivo

{"QUERY_SMILES": "CC(C)(C)[C@@H](CC(=O)O)Nc1nc(-c2c[nH]c3ncc(F)cc23)ncc1F", "Cmax / ng/mL": 11800}
{"QUERY_SMILES": "C[C@](CC(=O)O)(Nc1nc(-c2c[nH]c3ncc(F)cc23)ncc1F)C1CCC1", "Cmax / ng/mL": 7400}

====

experiment: AUC in mouse at 30 mg/kg, po; type: ADME, organism-based; design: dose 30 mg/kg, route po; conditions: in vivo
MEASURED_ENDPOINT: AUC

{"QUERY_SMILES": "C[C@](CC(=O)O)(Nc1nc(-c2c[nH]c3ncc(F)cc23)ncc1F)C1CCC1", "VALUE_OBSERVED": "6700 ng·h/mL"}
{"QUERY_SMILES": "CC(C)(C)[C@@H](CC(=O)O)Nc1nc(-c2c[nH]c3ncc(F)cc23)ncc1F", "VALUE_OBSERVED": "7200 ng·h/mL"}

====

test system: Influenza A virus; experiment: Antiviral activity against oseltamivir sensitive Influenza A virus A/[…]/8/34 (H1N1) infected in MDCK cells incubated for 72 hrs by cell protection assay; type: functional, organism-based
pEC50: −log10 of the molar value.

{"QUERY_SMILES": "CC(C)(C)[C@@H](CC(=O)O)Nc1nc(-c2c[nH]c3ncc(F)cc23)ncc1F", "pEC50": 7.85}

====

experiment: Stability in human S9 fraction assessed as compound remaining at 1 uM; assay type: ADME, subcellular; details: read-out: Stability
MEASURED_ENDPOINT: remaining at 1 µM (%)

{"QUERY_SMILES": "C[C@](CC(=O)O)(Nc1nc(-c2c[nH]c3ncc(F)cc23)ncc1F)C1CCC1", "MEASURED_ENDPOINT": "remaining at 1 µM", "VALUE_OBSERVED": 94}
